Listed next: entries and their corresponding IC50.
Test: Inhibition of V-ATPase-driven proton transport in membrane vesicles derived from chicken osteoclasts (cOc).

Cpd smiles: CO/C1=C\C(C)=C\[C@@H](C)[C@@H](O)[C@@H](C)C/C(C)=C/C=C/[C@H](OC)[C@@H]([C@@H](C)[C@@H](O)[C@H](C)C(=O)O)OC1=O
IC50: > 10 µM
--
Cpd smiles: CO/C1=C\C(C)=C\[C@@H](C)C(=O)[C@@H](C)C/C(C)=C/C=C/[C@H](OC)[C@@H]([C@@H](C)[C@@H](O)[C@H](C)C(=O)O)OC1=O
IC50: > 10 µM
--
Cpd smiles: COC(=O)[C@@H](C)[C@H](O)[C@H](C)[C@H]1OC(=O)/C(OC)=C/C(C)=C/[C@@H](C)C(=O)[C@@H](C)C/C(C)=C/C=C/[C@@H]1OC
IC50: > 10 µM
